I'd be grateful if you could share measured EC50 for these entries.
Test system: HCV 1b-BB7 subgenomic replicon
TEST_PROTOCOL: microbe, parasite or virus in culture
Assay type: cell-based, HCV genotype 1b
CONDITION_PARAMETERS: Hepatitis C virus, stable replicon, strain 1b BB7, 5% FBS, no human plasma; read-out: 1b BB7 5% FBS EC50

Exercise: GET /values?readout=EC50&item= "COc1ccc(CN(c2cc3oc(-c4ccc(F)cc4)c(-c4ncc[nH]4)c3cc2OC(C)C)S(C)(=O)=O)cc1"
Key: 121 nM

Exercise: Same lookup for "CS(=O)(=O)N(CC1CCCC1)c1cc2oc(-c3ccc(F)cc3)c(-c3ncc[nH]3)c2cc1C1CC1" , please.
Key: 65 nM

Exercise: Same lookup for "CS(=O)(=O)N(CCCCCO)c1cc2oc(-c3ccc(F)cc3)c(C3=NOCN3)c2cc1C1CC1" , please.
Key: 9.8 nM

Exercise: Now this one: "CN(C)C(=O)CCCN(c1cc2oc(-c3ccc(F)cc3)c(-c3ncc[nH]3)c2cc1C1CC1)S(C)(=O)=O"
Key: 10 nM

Exercise: Similarly, "CS(=O)(=O)CCN(c1cc2oc(-c3ccc(F)cc3)c(-c3ncc[nH]3)c2cc1C1CC1)S(C)(=O)=O" ?
Key: 4.9 nM

Exercise: Another compound: "CS(=O)(=O)N(CCCCC(N)=O)c1cc2oc(-c3ccc(F)cc3)c(-c3ncc[nH]3)c2cc1C1CC1"
Key: 4.9 nM

Exercise: Same read-out for "CS(=O)(=O)N(CCO)c1cc2oc(-c3ccc(F)cc3)c(-c3ncc[nH]3)c2cc1C1CC1" ?
Key: 12.7 nM

Exercise: Param item: "CS(=O)(=O)N(CCCCO)c1cc2oc(-c3ccc(F)cc3)c(-c3noc(=O)[nH]3)c2cc1C1CC1"
Key: 1000 nM

Exercise: // repeat for "CC(C)CCN(c1cc2oc(-c3ccc(F)cc3)c(-c3nc(C(F)(F)F)c[nH]3)c2cc1C1CC1)S(C)(=O)=O" and report
Key: 9270 nM

Exercise: Let us now turn to "CCS(=O)(=O)CCN(c1cc2oc(-c3ccc(F)cc3)c(C3=NOCCN3)c2cc1C1CC1)S(C)(=O)=O"
Key: 11 nM

Exercise: Now consider CC(c1ccccc1)N(c1ccc2c(-c3ncc[nH]3)c(-c3ccccc3)oc2c1)S(C)(=O)=O (stereo not drawn) .
Key: 133 nM

Exercise: Okay, and CC(C)(O)C(O)CN(c1cc2oc(-c3ccc(F)cc3)c(-c3ncc[nH]3)c2cc1C1CC1)S(C)(=O)=O (stereo not drawn) ?
Key: 76.3 nM

Exercise: Proceed to "CS(=O)(=O)N(CCCC#N)c1cc2oc(-c3ccc(F)cc3)c(-c3ncc[nH]3)c2cc1C1CC1"
Key: 3 nM

Exercise: Moving on to the next compound: C[S+]([O-])CCN(c1cc2oc(-c3ccc(F)cc3)c(C3=NOCCN3)c2cc1C1CC1)S(C)(=O)=O (stereo not drawn)
Key: 36 nM

Exercise: Cool, now "CS(=O)(=O)N(CCCCC(=O)O)c1cc2oc(-c3ccc(F)cc3)c(-c3ncc[nH]3)c2cc1C1CC1"
Key: 25.9 nM

###

MEASURED_ON: HCV NS5B polymerase 1a-H77-C316Y (Hepatitis C virus genotype 1a, UniProt P27958, C2736Y)
Construct: six-histidine tag
Sequence (P27958 2421-2990 C2736Y): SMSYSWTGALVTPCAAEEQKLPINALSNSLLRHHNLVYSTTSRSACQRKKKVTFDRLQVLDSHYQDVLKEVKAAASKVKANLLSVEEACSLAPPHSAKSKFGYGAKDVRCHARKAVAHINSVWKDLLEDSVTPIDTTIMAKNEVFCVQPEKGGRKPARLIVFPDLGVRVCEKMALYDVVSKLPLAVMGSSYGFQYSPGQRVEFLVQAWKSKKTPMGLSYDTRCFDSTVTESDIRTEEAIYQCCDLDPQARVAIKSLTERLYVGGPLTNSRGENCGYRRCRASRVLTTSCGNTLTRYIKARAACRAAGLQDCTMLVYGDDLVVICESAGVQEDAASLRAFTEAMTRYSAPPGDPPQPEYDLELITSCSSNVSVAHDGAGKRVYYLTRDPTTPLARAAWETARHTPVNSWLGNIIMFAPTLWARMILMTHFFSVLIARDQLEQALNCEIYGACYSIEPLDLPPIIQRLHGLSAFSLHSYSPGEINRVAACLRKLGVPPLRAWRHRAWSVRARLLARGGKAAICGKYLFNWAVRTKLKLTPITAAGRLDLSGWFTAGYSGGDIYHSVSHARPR
TEST_PROTOCOL: biochemical
Can you tell me IC50 for the items I'm about to list?
The answer is to be given in nM; state only the numeric part.

Exercise: Requested field: IC50. Item: CS(=O)(=O)N(Cc1ccccc1)c1ccc2c(-c3ncc[nH]3)c(-c3ccccc3)oc2c1 [Example 21]
Key: 90

Exercise: Follow-up entry: CSCCN(c1cc2oc(-c3ccc(F)cc3)c(-c3ncc[nH]3)c2cc1C1CC1)S(C)(=O)=O [Example 74]
Key: 107

Exercise: Also, CS(=O)(=O)N(CCCN1CCCC1)c1cc2oc(-c3ccc(F)cc3)c(C3=NOCCN3)c2cc1C1CC1 [Example 132] please.
Key: 934

Exercise: Follow-up item: CC(C)CCN(c1cc2oc(-c3ccc(F)cc3)c(-c3nccc(=O)[nH]3)c2cc1C1CC1)S(C)(=O)=O [Example 161]
Key: 219

Exercise: Note, next up: CCOC(=O)CCCCN(c1cc2oc(-c3ccc(F)cc3)c(-c3ncc[nH]3)c2cc1C1CC1)S(C)(=O)=O [Example 50]
Key: 104

Exercise: Then CS(=O)(=O)N(CCCc1noc(=S)[nH]1)c1cc2oc(-c3ccc(F)cc3)c(C3=NOCCN3)c2cc1C1CC1 [Example 183] ?
Key: 22

Exercise: Follow-up item: CS(=O)(=O)N(CC1CCCC1)c1cc2oc(-c3ccc(F)cc3)c(-c3ncc[nH]3)c2cc1C1CC1 [Example 34]
Key: 149

Exercise: Record: COc1ccc(CN(c2cc3oc(-c4ccc(F)cc4)c(-c4ncc[nH]4)c3cc2OC(C)C)S(C)(=O)=O)cc1 [Example 170]
Key: 20000

Exercise: Now give it for CCOC(=O)CN(c1cc2oc(-c3ccc(F)cc3)c(-c3ncc[nH]3)c2cc1C1CC1)S(C)(=O)=O [Example 33] too.
Key: 1900

Exercise: Now consider CS(=O)(=O)N(CCCCC(=O)O)c1cc2oc(-c3ccc(F)cc3)c(-c3ncc[nH]3)c2cc1C1CC1 [Example 92] .
Key: 43

Exercise: Follow-up item: CS(=O)(=O)N(CCCC(=O)O)c1cc2oc(-c3ccc(F)cc3)c(C3=NOCCN3)c2cc1C1CC1 [Example 135]
Key: 41

Exercise: What do you have for C[S+]([O-])CCCN(c1cc2oc(-c3ccc(F)cc3)c(C3=NOCCN3)c2cc1C1CC1)S(C)(=O)=O (stereo not drawn) [Example 139] ?
Key: 89

Exercise: How about C[S+]([O-])c1ccc(-c2ncc(CN(c3ccc4c(-c5ncc[nH]5)c(-c5ccccc5)oc4c3)S(C)(=O)=O)s2)cc1 (stereo not drawn) [Example 24] ?
Key: 36

Exercise: Another: CC(C)N(c1cc2oc(-c3ccc(F)cc3)c(-c3ncc[nH]3)c2cc1C1CC1)S(C)(=O)=O [Example 52]
Key: 2220

Exercise: Likewise for CC(=O)CCCN(c1cc2oc(-c3ccc(F)cc3)c(-c3ncc[nH]3)c2cc1C1CC1)S(C)(=O)=O [Example 73] ?
Key: 53

###

Test system: HCV 1a-H77 subgenomic replicon
TEST_PROTOCOL: microbe, parasite or virus in culture
Assay type: cell-based, HCV genotype 1a
CONDITION_PARAMETERS: Hepatitis C virus, stable replicon, strain 1a H77, 5% FBS; read-out: 1a H77 5% FBS EC50
RESULT_TYPE: EC50
Just the number plus its unit, please.

Exercise: Please provide the recorded EC50 for "CS(=O)(=O)N(CN1C(=O)c2ccccc2C1=O)c1cc2oc(-c3ccc(F)cc3)c(-c3ncc[nH]3)c2cc1C1CC1" , tested on HCV 1a-H77 subgenomic replicon.
Key: 2630 nM

Exercise: # repeat for "CC(C)(C#N)CCCCN(c1cc2oc(-c3ccc(F)cc3)c(C3=NOCCN3)c2cc1C1CC1)S(C)(=O)=O"
Key: 9.5 nM

Exercise: Now give it for "Cc1ccc(C)n1-c1nc(CCCN(c2cc3oc(-c4ccc(F)cc4)c(-c4ncc[nH]4)c3cc2C2CC2)S(C)(=O)=O)cs1" too.
Key: 88.7 nM

Exercise: Then this compound: "CC(C)CCN(c1cc2oc(-c3ccc(F)cc3)c(C3=NOC(C)(C)N3)c2cc1C1CC1)S(C)(=O)=O"
Key: 10000 nM

Exercise: Again, but for "CS(=O)(=O)N(CCCC(=O)N1CCCCC1)c1cc2oc(-c3ccc(F)cc3)c(-c3ncc[nH]3)c2cc1C1CC1"
Key: 31.9 nM

Exercise: One more compound: "CS(=O)(=O)N(CCCO)c1cc2oc(-c3ccc(F)cc3)c(C3=NOCCN3)c2cc1C1CC1"
Key: 15 nM

Exercise: Would you mind doing C[S+]([O-])c1ccc(-c2ncc(CN(c3ccc4c(-c5ncc[nH]5)c(-c5ccccc5)oc4c3)S(C)(=O)=O)s2)cc1 (stereo not shown) as well?
Key: 157 nM

###

Consider the following compounds; for each one, report its pEC50.
System: HCV 1b-BB7 subgenomic replicon
TEST_PROTOCOL: microbe, parasite or virus in culture
Assay type: cell-based, HCV genotype 1b
CONDITION_PARAMETERS: Hepatitis C virus, stable replicon, strain 1b BB7, 5% FBS; read-out: 1b BB7 5% FBS EC50
Quick note: pEC50 values are minus log10 of concentrations in mol/L.

Exercise: Given "CS(=O)(=O)N(CCC/C(N)=N/O)c1cc2oc(-c3ccc(F)cc3)c(C3=NOCCN3)c2cc1C1CC1" , state its recorded pEC50.
Key: 7.34

Exercise: Can you handle "CC(C)(O)CCN(c1cc2oc(-c3ccc(F)cc3)c(C3=NOCCN3)c2cc1C1CC1)S(C)(=O)=O" next?
Key: 7.70

Exercise: Query "CS(=O)(=O)N(Cc1cc(O)no1)c1cc2oc(-c3ccc(F)cc3)c(-c3ncc[nH]3)c2cc1C1CC1" next
Key: 6.94

Exercise: // same read-out, input: CC(C)(O)C(O)CCN(c1cc2oc(-c3ccc(F)cc3)c(-c3ncc[nH]3)c2cc1C1CC1)S(C)(=O)=O (stereo not shown)
Key: 7.85

Exercise: How about this compound: "CS(=O)(=O)N(CCCc1ccccc1)c1cc2oc(-c3ccc(F)cc3)c(-c3ncc[nH]3)c2cc1C1CC1"
Key: 7.40

Exercise: Now try "CS(=O)(=O)N(Cc1cnc(-c2ccc3[nH]ccc3c2)s1)c1ccc2c(-c3ncc[nH]3)c(-c3ccccc3)oc2c1" .
Key: 7.58

Exercise: For "CCCCCN(c1cc2oc(-c3ccc(F)cc3)c(-c3ncc[nH]3)c2cc1C1CC1)S(C)(=O)=O" then?
Key: 7.45

Exercise: And for "CS(=O)(=O)N(CCO)c1cc2oc(-c3ccc(F)cc3)c(C3=NOCCN3)c2cc1C1CC1" ?
Key: 7.46

Exercise: What would you report for "CSCCN(c1cc2oc(-c3ccc(F)cc3)c(-c3ncc[nH]3)c2cc1C1CC1)S(C)(=O)=O" ?
Key: 8.19

Exercise: Lookup "CS(=O)(=O)N(CCC1CCOCC1)c1cc2oc(-c3ccc(F)cc3)c(-c3ncc[nH]3)c2cc1C1CC1"
Key: 8.07

Exercise: What do you have for "CS(=O)(=O)N(Cc1sc(Br)nc1C(F)(F)F)c1ccc2c(-c3ncc[nH]3)c(-c3ccccc3)oc2c1" ?
Key: 6.06

Exercise: Try the compound "Cn1ccc2cc(-c3ncc(CN(c4ccc5c(-c6ncc[nH]6)c(-c6ccccc6)oc5c4)S(C)(=O)=O)s3)ccc21"
Key: 8.09

Exercise: For "[2H]C([2H])(CCCCC)N(c1cc2oc(-c3ccc(F)cc3)c(-c3ncc[nH]3)c2cc1C1CC1)S(C)(=O)=O" then?
Key: 7.55

Exercise: Request: "CCS(=O)(=O)CCN(c1cc2oc(-c3ccc(F)cc3)c(C3=NOCCN3)c2cc1C1CC1)S(C)(=O)=O"
Key: 7.96

Exercise: Input "COCCN(c1cc2oc(-c3ccc(F)cc3)c(-c3ncc[nH]3)c2cc1C1CC1)S(C)(=O)=O"
Key: 7.59

Exercise: Same question, "CS(=O)(=O)N(CCCc1nsc(=O)[nH]1)c1cc2oc(-c3ccc(F)cc3)c(C3=NOCCN3)c2cc1C1CC1" this time
Key: 7.55

Exercise: Here is the next compound: C[S+]([O-])CCCN(c1cc2oc(-c3ccc(F)cc3)c(C3=NOCCN3)c2cc1C1CC1)S(C)(=O)=O (stereo not shown)
Key: 7.17

Exercise: Again, but for "CCN(CC)CCCN(c1cc2oc(-c3ccc(F)cc3)c(C3=NOCCN3)c2cc1C1CC1)S(C)(=O)=O"
Key: 7.59

Exercise: Try "CS(=O)(=O)N(CCCc1cc(O)no1)c1cc2oc(-c3ccc(F)cc3)c(-c3ncc[nH]3)c2cc1C1CC1" next.
Key: 8.24

Exercise: Can you handle "COc1ccc(CN(c2cc3oc(-c4ccc(F)cc4)c(C4=NOCC(=O)N4)c3cc2C2CC2)S(C)(=O)=O)cc1" next?
Key: 6.22

Exercise: Would you mind doing "CC(C)(O)C(=O)CCN(c1cc2oc(-c3ccc(F)cc3)c(-c3ncc[nH]3)c2cc1C1CC1)S(C)(=O)=O" as well?
Key: 7.56

Exercise: Try this compound too: "CCOP(=O)(CCCN(c1cc2oc(-c3ccc(F)cc3)c(C3=NOCCN3)c2cc1C1CC1)S(C)(=O)=O)OCC"
Key: 7.49

Exercise: Would you kindly repeat that for "CCN(CC)CCN(c1cc2oc(-c3ccc(F)cc3)c(C3=NOCCN3)c2cc1C1CC1)S(C)(=O)=O" ?
Key: 7.42

Exercise: Repeat with "CC(C)CCN(c1cc2oc(-c3ccc(F)cc3)c(-c3ncc[nH]3)c2cc1C1CC1)S(C)(=O)=O"
Key: 7.60

Exercise: Also "CS(=O)(=O)N(CC(N)=O)c1cc2oc(-c3ccc(F)cc3)c(-c3ncc[nH]3)c2cc1C1CC1" ?
Key: 6.74

Exercise: Please answer likewise for "CS(=O)(=O)N(CCCc1nnn[nH]1)c1cc2oc(-c3ccc(F)cc3)c(-c3ncc[nH]3)c2cc1C1CC1"
Key: 6.72

Exercise: Another compound: "CS(=O)(=O)N(CCCS(=O)(=O)N1CCOCC1)c1cc2oc(-c3ccc(F)cc3)c(-c3ncc[nH]3)c2cc1C1CC1"
Key: 8.16

Exercise: Please answer likewise for "CC(C)CCCN(c1cc2oc(-c3ccc(F)cc3)c(-c3ncc[nH]3)c2cc1C1CC1)S(C)(=O)=O"
Key: 7.64
